- protocol.notes: self-splicing fitness, log relative to wild type (ln ratio); higher = more splicing; Tetrahymena group I intron in knt gene, E. coli kanamycin selection, DiMSum; sequences stand for … in CUCUCU…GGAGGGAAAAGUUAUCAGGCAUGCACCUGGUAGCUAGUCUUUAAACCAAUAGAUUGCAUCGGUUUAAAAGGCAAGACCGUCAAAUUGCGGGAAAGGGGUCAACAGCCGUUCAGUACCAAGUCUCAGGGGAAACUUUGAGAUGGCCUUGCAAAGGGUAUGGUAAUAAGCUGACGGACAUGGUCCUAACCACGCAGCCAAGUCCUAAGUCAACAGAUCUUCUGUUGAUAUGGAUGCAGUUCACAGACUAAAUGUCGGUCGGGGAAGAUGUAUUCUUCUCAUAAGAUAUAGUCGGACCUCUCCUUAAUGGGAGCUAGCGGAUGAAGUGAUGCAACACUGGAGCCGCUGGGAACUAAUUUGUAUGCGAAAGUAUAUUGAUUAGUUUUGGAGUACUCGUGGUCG;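 note: selection with 25 µg/mL kanamycin versus none on LB agar overnight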
- measurement.parameters: 37 °C
Criterion: self-splicing fitness (ln) meeting or surpassing -0.8. Met: true. Not met: false.

sequence.input: CCAGAGCAAUAUUACGGGAU
group: false
//
sequence.input: UAAAAGCAAUAUUACGUAGU
group: false
//
sequence.input: CGAGAGCAAUAUUACGGCAG
group: false
//
sequence.input: GCCUAGCAAUAUUACGGGAG
group: true
//
sequence.input: CCAGAGCAAUAUUACGCGUG
group: false
//
sequence.input: GGAUAGCAAUAUUACGAGCG
group: true
//
sequence.input: AUCCAGCAAUAUUACGUCGC
group: false
//
sequence.input: UCCUAGCAAUAUUACGGACG
group: false
//
sequence.input: GAGGAGCAAUAUUACGGUCA
group: false
//
sequence.input: AUGAAGCAAUAUUACGACGG
group: true
//
sequence.input: CUGCAGCAAUAUUACGACAC
group: false
//
sequence.input: UCUAAGCAAUAUUACGAUGG
group: true
//
sequence.input: AUAUAGCAAUAUUACGGGCC
group: false
//
sequence.input: AUCCAGCAAUAUUACGUGAG
group: true
//
sequence.input: AUUCAGCAAUAUUACGAAAC
group: true
//
sequence.input: CUAAAGCAAUAUUACGUUCG
group: true
//
sequence.input: AAUCAGCAAUAUUACGCCUC
group: true
//
sequence.input: GGUUAGCAAUAUUACGCCGA
group: true
//
sequence.input: UAUGAGCAAUAUUACGUCCG
group: false
//
sequence.input: UUUAAGCAAUAUUACGGAUA
group: false
//
sequence.input: GGCCAGCAAUAUUACGGAGA
group: true
//
sequence.input: AGUAAGCAAUAUUACGAGUA
group: false
//
sequence.input: CCACAGCAAUAUUACGGGUA
group: false
//
sequence.input: AGUUAGCAAUAUUACGAAUG
group: false
//
sequence.input: AUUAAGCAAUAUUACGCCGA
group: true
//
sequence.input: CUUUAGCAAUAUUACGGCCG
group: true
//
sequence.input: GUGCAGCAAUAUUACGAGUA
group: false
//
sequence.input: UUCUAGCAAUAUUACGAUUA
group: true
//
sequence.input: CACCAGCAAUAUUACGGACA
group: true
//
sequence.input: AUGAAGCAAUAUUACGGUCC
group: true
//
sequence.input: CGUGAGCAAUAUUACGGCUA
group: false
//
sequence.input: UAAAAGCAAUAUUACGAAGC
group: false
//
sequence.input: UUAUAGCAAUAUUACGCUGA
group: true
//
sequence.input: AUUUAGCAAUAUUACGUCUA
group: true
//
sequence.input: AUGAAGCAAUAUUACGGCGA
group: true
//
sequence.input: GCAAAGCAAUAUUACGUCGG
group: false
//
sequence.input: CUUUAGCAAUAUUACGGUCU
group: false
//
sequence.input: UAGGAGCAAUAUUACGUUCU
group: false
//
sequence.input: AAUAAGCAAUAUUACGAUAA
group: false
//
sequence.input: UGGGAGCAAUAUUACGCUUG
group: true
//
sequence.input: UUUUAGCAAUAUUACGUAAC
group: false
//
sequence.input: GCAGAGCAAUAUUACGGCUU
group: true
//
sequence.input: CGUUAGCAAUAUUACGUCCU
group: false
//
sequence.input: GUCCAGCAAUAUUACGUUAU
group: true
//
sequence.input: AAGUAGCAAUAUUACGCAGU
group: false
//
sequence.input: AUCCAGCAAUAUUACGUGGU
group: false
//
sequence.input: GGAAAGCAAUAUUACGCUCA
group: true
//
sequence.input: ACCCAGCAAUAUUACGGGUU
group: false
//
sequence.input: AAGGAGCAAUAUUACGGCGC
group: false
//
sequence.input: CGCUAGCAAUAUUACGUAUA
group: false
//
sequence.input: AAGAAGCAAUAUUACGACUC
group: true
//
sequence.input: AACAAGCAAUAUUACGUGCU
group: false
//
sequence.input: GUACAGCAAUAUUACGCUAC
group: false
//
sequence.input: GGUGAGCAAUAUUACGGUGU
group: false
//
sequence.input: UAUGAGCAAUAUUACGGUAC
group: false
//
sequence.input: GGCCAGCAAUAUUACGCGGG
group: false
//
sequence.input: CAAGAGCAAUAUUACGAAUU
group: false
//
sequence.input: ACCUAGCAAUAUUACGGCAC
group: true
//
sequence.input: CCGCAGCAAUAUUACGAGGG
group: false
//
sequence.input: ACGGAGCAAUAUUACGUCUU
group: false
//
sequence.input: AAAGAGCAAUAUUACGCCAC
group: false
//
sequence.input: CGCUAGCAAUAUUACGUGUG
group: false
//
sequence.input: GAACAGCAAUAUUACGCAGC
group: false
//
sequence.input: AGCCAGCAAUAUUACGUACG
group: false
//
sequence.input: UUAGAGCAAUAUUACGAAAA
group: true
//
sequence.input: CACCAGCAAUAUUACGGCUC
group: false
//
sequence.input: UCGGAGCAAUAUUACGGCGA
group: true
